- Test system: 996289-038-R-J1-PDC spheroid viability
- assay_remarks: Anticancer human tumor 996289-038-R-J1-PDC patient-derived colon adenocarcinoma cell line growth inhibition [PI3K]
- details: second compound 3.16 µM; first compound 0.000316 µM; hits give low values; spheroids with HUVEC and MSC
The label is criterion met for viability, T/C below 60% and criterion not met for viability, T/C equal to or exceeding 60%.

>  <compound>
CC(C)n1nc(-c2ccc3oc(N)nc3c2)c2c(N)ncnc21 + CC(Nc1ncnc2nc[nH]c12)c1cc2cccc(Cl)c2c(=O)n1-c1ccccc1

>  <cat>
criterion not met

$$$$
>  <compound>
Cn1ncnc1[C@H]1c2n[nH]c(=O)c3cc(F)cc(c23)N[C@@H]1c1ccc(F)cc1 + Cc1nc(NC(=O)N2CCCC2C(N)=O)sc1-c1ccnc(C(C)(C)C(F)(F)F)c1

>  <cat>
criterion met

$$$$
>  <compound>
CC(C)n1nc(-c2ccc3oc(N)nc3c2)c2c(N)ncnc21 + Cc1nc(NC(=O)N2CCCC2C(N)=O)sc1-c1ccnc(C(C)(C)C(F)(F)F)c1

>  <cat>
criterion not met

$$$$
>  <compound>
Cn1ncnc1[C@H]1c2n[nH]c(=O)c3cc(F)cc(c23)N[C@@H]1c1ccc(F)cc1 + CC(Nc1ncnc2nc[nH]c12)c1cc2cccc(Cl)c2c(=O)n1-c1ccccc1

>  <cat>
criterion not met

$$$$
>  <compound>
CC(=O)c1c(C)c2cnc(Nc3ccc(N4CCNCC4)cn3)nc2n(C2CCCC2)c1=O + CC(Nc1ncnc2nc[nH]c12)c1cc2cccc(Cl)c2c(=O)n1-c1ccccc1

>  <cat>
criterion not met

$$$$

----------
- Tested on: 996289-038-R-J1-PDC spheroid viability
- assay_remarks: Anticancer human tumor 996289-038-R-J1-PDC cell line growth inhibition [PI3K];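 further: luminescence used as a proxy for viable cell amount; spheroids exposed to compounds for seven days before viability read; percent viability relative to DMSO vehicle control as 100%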
- details: second compound 0.00316 µM; first compound 0.316 µM; hits give low values; spheroids with HUVEC and MSC
In this section, each of the molecules is paired with its reported viability, T/C.
assay_metric: viability, T/C (%)

>  <molecule>
CCN1CCN(Cc2ccc(Nc3ncc(F)c(-c4cc(F)c5nc(C)n(C(C)C)c5c4)n3)nc2)CC1 + COc1c(OCCCN2CCOCC2)ccc2c3n(c(=NC(=O)c4cnc(N)nc4)nc12)CCN3

>  <assay_metric>
viability, T/C

>  <experimental_value>
82.9

$$$$
>  <molecule>
Cn1nccc1Nc1nccc(-c2ccn(C(CO)c3ccc(Cl)c(F)c3)c(=O)c2)n1 (stereo not drawn) + CC(Nc1ccc2c(c1)OCCn1cc(N3C(=O)OCC3C(F)F)nc1-2)C(N)=O

>  <assay_metric>
viability, T/C

>  <experimental_value>
117

$$$$
>  <molecule>
C#Cc1c(F)ccc2cc(O)cc(-c3ncc4c(N5CC6CCC(C5)N6)nc(OCC56CCCN5CC(F)C6)nc4c3F)c12 (stereo not drawn) + COc1c(OCCCN2CCOCC2)ccc2c3n(c(=NC(=O)c4cnc(N)nc4)nc12)CCN3

>  <assay_metric>
viability, T/C

>  <experimental_value>
60.9

$$$$

----------
- System: 996289-038-R-J1-PDC spheroid viability
- assay_remarks: Anticancer human tumor 996289-038-R-J1-PDC cell line growth inhibition [PI3K];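 further: luminescence used as a proxy for viable cell amount; spheroids exposed to compounds for seven days before viability read; percent viability relative to DMSO vehicle control as 100%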
- details: second compound 0.316 µM; first compound 0.00316 µM; hits give low values; spheroids with HUVEC and MSC

>  <compound>
CC(=O)c1c(C)c2cnc(Nc3ccc(N4CCNCC4)cn3)nc2n(C2CCCC2)c1=O + COc1c(OCCCN2CCOCC2)ccc2c3n(c(=NC(=O)c4cnc(N)nc4)nc12)CCN3

>  <unit_spec>
%

>  <viability, T/C>
39.1

$$$$
>  <compound>
CCN1CCN(Cc2ccc(Nc3ncc(F)c(-c4cc(F)c5nc(C)n(C(C)C)c5c4)n3)nc2)CC1 + Cc1nc(NC(=O)N2CCCC2C(N)=O)sc1-c1ccnc(C(C)(C)C(F)(F)F)c1

>  <unit_spec>
%

>  <viability, T/C>
85.9

$$$$
>  <compound>
CC(=O)c1c(C)c2cnc(Nc3ccc(N4CCNCC4)cn3)nc2n(C2CCCC2)c1=O + Cc1nc(NC(=O)N2CCCC2C(N)=O)sc1-c1ccnc(C(C)(C)C(F)(F)F)c1

>  <unit_spec>
%

>  <viability, T/C>
80

$$$$
>  <compound>
CC(C)n1nc(-c2ccc3oc(N)nc3c2)c2c(N)ncnc21 + COc1c(OCCCN2CCOCC2)ccc2c3n(c(=NC(=O)c4cnc(N)nc4)nc12)CCN3

>  <unit_spec>
%

>  <viability, T/C>
29.9

$$$$
